# reported AUC, modulator BJ.Nec-1; entries follow
test system: BJeLR; test: Modulatory profiling: Alamar Blue viability, lethal compound cotreated with death modulator (EC50, AUC); assay type: cell-based, human; design: unit not given beside the values; details: BJeLR cells; lethal compound cotreated with modulator Nec-1; modulatory profile value (AUC); further: reference of the scale not given here

| compound | AUC, modulator BJ.Nec-1 |
| --- | --- |
| [O-][N+]1=c2ccc(Nc3ccccc3)cc2=NC12CCCCC2 [CIL66] | 0.03694 |
| COC(=O)[C@@H]1Cc2c([nH]c3ccccc23)C(C)(C)N1C(=O)CCl [CIL79] | 0.2258 |
| CN(C)CCCOS(=O)(=O)c1ccc(N2CCC(c3ccc(Cl)cc3)=N2)cc1 [CIL40] | 0.02442 |
| O=c1c(Cl)c(Cl)cnn1-c1ccc(Cl)cc1 [CIL63] | 0.02815 |
| O=C(CCCCCN1C(=O)c2cccc3cccc(c23)C1=O)NO [Scriptaid] | 0.02804 |
| COc1cc([C@@H]2c3cc4c(cc3[C@@H](O[C@@H]3O[C@@H]5CO[C@@H](C)O[C@H]5[C@H](O)[C@H]3O)[C@H]3COC(=O)[C@H]23)OCO4)cc(OC)c1O [Etoposide] | −0.04354 |
| CC1=CC(C)(C)Nc2ccc(OC(=O)c3ccco3)cc21 [CIL2] | 0.0318 |
| COc1ccc(-n2nnnc2S(=O)(=O)CC(=O)N2CCCCC2)cc1 [CIL48] | −0.04434 |
| CC[C@]1(O)C[C@H]2CN(CCc3c([nH]c4ccccc34)[C@@](C(=O)OC)(c3cc4c(cc3OC)N(C=O)[C@H]3[C@@](O)(C(=O)OC)[C@H](OC(C)=O)[C@]5(CC)C=CCN6CC[C@]43[C@@H]65)C2)C1 [Vincristine] | −0.05572 |
| N/C(=N\OC(=O)C12CC3CC(CC(C3)C1)C2)c1ccccc1 [CIL41] | 0.09368 |
| OCCNCC(O)Cn1c2ccc(Br)cc2c2cc(Br)ccc21 (stereo not drawn) [CIL7] | 0.02534 |
| CC(C)C[C@H](NC(=O)[C@H](CC(C)C)NC(=O)[C@H](CC(C)C)NC(=O)OCc1ccccc1)B(O)O [MG262] | −0.01342 |
| Cc1ccc(O)c(/N=C/C=C/c2cccc(Br)c2)c1 [CIL27] | −0.05452 |
| Cc1cccnc1Nc1nc(-c2ccccn2)cs1 [CIL13] | 0.04738 |
| CC1CC2=C(CC1CNCCCN(C)C)C(C)(C)CCC2 (stereo not drawn) [CIL26] | −0.03974 |
| COc1ccc(C(=O)C(CN2CCCC2)c2ccccc2)cc1 (stereo not drawn) [CIL72] | −0.02464 |
| Nc1ccccc1NC(=O)c1ccc(CNC(=O)OCc2cccnc2)cc1 [MS275] | −0.01329 |
| O=C(CCl)N(c1ccccc1)c1c[nH]c2ccccc12 [CIL69] | 0.1721 |
